Hey, just so you know, these numbers are from ChEMBL document CHEMBL1141299.

assay: Oral bioavailability in human; details: in vivo, F
Items are presented alongside their recorded bioavailability.
Just the number in %, nothing appended.

>>> measured("COc1cc2nc(N3CCN(C(=O)C4COc5ccccc5O4)CC3)nc(N)c2cc1OC (centres undefined)")
65
>>> measured("C[C@@H]1COc2c(N3CCN(C)CC3)c(F)cc3c(=O)c(C(=O)O)cn1c23")
97.5
>>> measured("CC(C)COC[C@@H](CN(Cc1ccccc1)c1ccccc1)N1CCCC1")
60
>>> measured("O=C1CN(/N=C/c2ccc([N+](=O)[O-])o2)C(=O)N1")
87
>>> measured("COc1cc(N[C@@H](C)CCCN)c2ncccc2c1")
96
>>> measured("CCOC(=O)C(CCc1ccccc1)N[C@@H](C)C(=O)N1CCC[C@H]1C(=O)O (single isomer, unassigned)")
41
>>> measured("NS(=O)(=O)c1cc2c(cc1Cl)NCNS2(=O)=O [HYDROCHLOROTHIAZIDE]")
71
>>> measured("Cc1cccc(C)c1NC(=O)[C@@H](C)N [(R)-TOCAINIDE]")
89

Attention now shifts to the item below.
// bioavailability lookup, compound = CC(=O)OCC(CCn1cnc2cnc(N)nc21)COC(C)=O , result: 77

====

assay: Oral bioavailability in human; details: in vivo, F
Value Kind: bioavailability (%)
Enter your answer as a number in %; do not include the unit.

Recorded results for 7 compounds are shown here.
>>> measured("CN1CCC[C@@H]1Cc1c[nH]c2ccc(CCS(=O)(=O)c3ccccc3)cc12")
62.5
>>> measured("CCOC(=O)C1=C(C)NC(C)=C(C(=O)OC)[C@@H]1c1cccc([N+](=O)[O-])c1 [(S)-NITRENDIPINE]")
16
>>> measured("CC(C)(C)NC[C@@H](O)c1ccc(O)c(CO)c1 [(S)-ALBUTEROL]")
71
>>> measured("CC(C)[C@H](N)C(=O)OC[C@@H](CO)OCn1cnc2c(=O)nc(N)[nH]c21 [(R)-VALGANCICLOVIR]")
59.4
>>> measured("CO[C@H]1/C=C/O[C@@]2(C)Oc3c(C)c(O)c4c(O)c(c(/C=N/N5CCN(C)CC5)c(O)c4c3C2=O)NC(=O)/C(C)=C\\C=C\\[C@H](C)[C@H](O)[C@@H](C)[C@@H](O)[C@@H](C)[C@H](OC(C)=O)[C@@H]1C")
88.8
>>> measured("Cc1cccc(C)c1NC(=O)[C@H](C)N [S-TOCAINIDE]")
89
>>> measured("CC(=O)S[C@@H]1CC2=CC(=O)CC[C@]2(C)[C@H]2CC[C@@]3(C)[C@@H](CC[C@@]34CCC(=O)O4)[C@H]12")
25

Value of measured bioavailability for the entry CC(=O)Nc1ccc(O)cc1 : 88

====

Items are presented alongside their recorded bioavailability.
assay: Oral bioavailability in human; conditions: in vivo, F
Value expressed in %; do not type the unit.

Guide cases for bioavailability, answers given:
>>> measured("O=C(NC[C@@H]1CCCCN1)c1cc(OCC(F)(F)F)ccc1OCC(F)(F)F")
95
>>> measured("CCCCCCCCCCCCCCCC(=O)OC[C@@H](NC(=O)C(Cl)Cl)[C@H](O)c1ccc([N+](=O)[O-])cc1 [CHLORAMPHENICOL PALMITATE]")
80
>>> measured("C[C@H]1C[C@@H]2[C@H]([C@@H](O)C[C@@]3(C)[C@H]2CC[C@]3(O)C(=O)CO)[C@@]2(C)C=CC(=O)C=C12 [METHYLPREDNISOLONE]")
82
>>> measured("COc1cc(Cc2cnc(N)nc2N)cc(OC)c1OC [TRIMETHOPRIM]")
63
>>> measured("Cc1cccc(C)c1OC[C@H](C)N [(S)-MEXILETINE]")
87

Sure, the documented bioavailability for Nc1ccc(S(=O)(=O)c2ccc(N)cc2)cc1 [DAPSONE] is 93

bioavailability recorded for this compound, CC(C)Cc1ccc([C@@H](C)C(=O)O)cc1 [(R)-IBUPROPHEN] , is 80

Data point: CC(C)[C@H](N)C(=O)OC[C@H](CO)OCn1cnc2c(=O)nc(N)[nH]c21 [(S)-VALGANCICLOVIR] ; bioavailability = 59.4

# bioavailability of Cc1onc(-c2c(F)cccc2Cl)c1C(=O)N[C@@H]1C(=O)N2[C@@H]1SC(C)(C)[C@@H]2C(=O)O [FLOXACILLIN] = 49
